Molecular target: Free fatty acid receptor 1 (Homo sapiens)
Sequence (O14842 whole entry): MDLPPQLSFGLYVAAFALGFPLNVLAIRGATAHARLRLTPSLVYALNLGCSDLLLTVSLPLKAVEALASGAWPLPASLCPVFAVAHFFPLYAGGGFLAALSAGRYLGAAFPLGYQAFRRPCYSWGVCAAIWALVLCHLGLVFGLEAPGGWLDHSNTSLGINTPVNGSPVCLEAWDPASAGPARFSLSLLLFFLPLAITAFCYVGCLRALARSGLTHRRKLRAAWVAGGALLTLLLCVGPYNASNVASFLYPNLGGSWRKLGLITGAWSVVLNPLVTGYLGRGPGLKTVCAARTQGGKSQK
Assay: Agonist activity at GPR40 expressed in CHO cells assessed as intrinsic efficacy after 20 seconds by aequorin bioluminescence assay in presence of 0.1 % human serum relative to AM-1638
Format: functional, cell-based
QUANTITY_MEASURED: Efficacy
Could you give the number and then its unit, please?

Write down Efficacy measured for item `COc1ccc(F)c(-c2ccc(COc3cccc([C@H](C)CC(=O)O)c3)cc2C(C)(C)C)c1` 107%

---

Experiment: Half life in mouse at 1 mg/kg, iv
Type: ADME, organism-based
Design: dose 1 mg/kg, route intravenous
Conditions: in vivo
QUANTITY_MEASURED: half-life (h)
Give your result in h as a bare value.

Write down half-life measured for item `COc1ccc(F)c(-c2ccc(COc3cccc([C@@H](CC(=O)O)C4CC4)c3)cc2C2=CCCC2(C)C)c1` 2
